target: T1, murine GPC3-His protein (murine, UniProt Q8CFZ4 25-558, limits assumed); assay: SPR, antibody captured on Protein A chip, murine GPC3-His injected
T1 construct: bought protein; also called murine GPC3 protein
T1 sequence (Q8CFZ4 25-558 limits assumed): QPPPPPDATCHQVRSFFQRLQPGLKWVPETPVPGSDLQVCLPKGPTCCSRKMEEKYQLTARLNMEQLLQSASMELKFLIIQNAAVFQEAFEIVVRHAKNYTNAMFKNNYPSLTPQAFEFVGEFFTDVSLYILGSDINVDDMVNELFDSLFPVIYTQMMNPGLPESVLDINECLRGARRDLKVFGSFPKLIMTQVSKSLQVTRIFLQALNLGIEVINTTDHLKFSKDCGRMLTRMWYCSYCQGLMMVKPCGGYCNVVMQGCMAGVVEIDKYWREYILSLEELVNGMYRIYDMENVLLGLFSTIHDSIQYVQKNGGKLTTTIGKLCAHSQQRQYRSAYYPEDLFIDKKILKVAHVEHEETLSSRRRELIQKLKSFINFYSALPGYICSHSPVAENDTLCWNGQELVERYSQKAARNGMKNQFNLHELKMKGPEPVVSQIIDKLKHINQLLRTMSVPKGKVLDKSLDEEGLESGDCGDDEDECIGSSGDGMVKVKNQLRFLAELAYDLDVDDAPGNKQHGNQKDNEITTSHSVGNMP
Give pKd for every item shown.
Numbers only, as −log10 of the molar value.

// input: 5 binders below; output: pKd for each
1. F1.111.11 (antibody, human IgG1, kappa, V domains shown, human-murine chimeric antibody) VH: EVQLQQSGPELVKPGASVKISCKASGYTFTDYYMNWVKQSHGKSLEWIGDIYPNNGDTTYNQRFKGKATLTVDKSSSTAYMELRSLASEDSAVYYCACPYNNPFGYWGQGTLVTVSA VL: DVVMTQTPLSLPVSLGDQASISCRSSQSLVHSNGNTYLHWYLQKPGQSPKLLIYKVSNRFSGVPDRFSGSGSGTDFTLKISRVEAEDLGVYFCSQSTHVPWTFGGGTKLEIKR
2. F1.21.8 (antibody, human IgG1, kappa, V domains shown, human-murine chimeric antibody) VH: EVQLQQSGPELVKPGASVKISCKTSGFLFTGHYMHWVKSSHGNILDWIGYIYPYNAISFYNQKFKGKATLTVDKSSNTAYMELRSLTSEDSAVYYCARGDYGNYVTAYWGQGTLVTVSA VL: DVLMTQTPLSLPVSLGDQASISCRSSQSIVHSSGNTYLEWYLQKPGQSPKLLIYKVSNRFSGVPDRFSGSGSGTDFTLKISRVEAEDLGVYYCFQGSHLPWTFGGGTKLDIKR
3. F4.26.1 (antibody, human IgG1, kappa, V domains shown, human-murine chimeric antibody) VH: QVQLKQSGPGLVQPSQSLSITCTVSGFSLTSYGVHWVRQSPGKGLEWLGVIWSSGNTDYNAVLISRLSIKKDDSKSQVFFKMNSPQVDDSAIYYCGRNGGWLLRGFMDFWGQGTSVTVSS VL: DVVMTQTPLSLPVSLGDQASISCRSSQSLLHSNGNTYLHWYLQRSGQSPNLLIYKVSNRFSGVPDRFSGGGSGTDFTLKISRVEAEDLGIYFCSQSTHVPWTFGGGTKLEIKR
4. F1.145.22 (antibody, human IgG1, kappa, V domains shown, human-murine chimeric antibody) VH: QVQLQQSGTDLARPGASVKLSCKASGYTFTSFGISWVKQRTGQGLEWIGEIYPRSGSPYYNEKFTGKATLTADKSSSTAYMELRSLTSEDSAVYFCAKDFGSSYVFDYWGQGTALTVSS VL: DIQMTQSPASLSASVGETVTITCRASENIYSYLTWYQQKQGKSPQLLVYNAKTLAEGVPSRFSGSGSGTQFSLKINSLQPEDFGTYYCQHHYGTPPTFGTGTKLDLKR
5. F1.2.14 (antibody, human IgG1, kappa, V domains shown, human-murine chimeric antibody) VH: RVQLQQSGAELVKPGASVRMSCKASGYTFTAYSIEWMKQNLGKSLEWIGNFRPYNDDTKYNENFKGRATLTVEKSSATVYLELSRLTSDDSAVYYCARSGPTDYFDYWGQGTTLIVSS VL: DIQMTQSPASLSASVGETVTITCRASDNIYSYLAWYQQKQGQSPQLLVYNAKTLAEGVPSRFSGSGSVTQFSLKIISLQPEDFGTYYCQHHFGTPRTFGGGTKLEIKR

// result
1. 8.46
2. 10.11
3. 8.84
4. 8.16
5. 9.07
